Test system: HCC 2998
Assay: NCI tumour cell line growth inhibition, 48 h
Activity calls are given as the source filed them. Rule as the data show it: active = GI50 up to about 1.1 µM and inactive = higher.
property.label: GI50

[[record]]
compound = "CC1C/C(=C\\c2ccc(OC(=O)C(C)(C)C)cc2)C(=O)/C(=C/c2ccc(OC(=O)C(C)(C)C)cc2)C1 (configuration not stated)"
assay_value = "> 100 µM (inactive)"

[[record]]
compound = "CC1=NN(c2nc(N)nc(CF)n2)C(C)(C)C1"
assay_value = "> 100 µM (inactive)"

[[record]]
compound = "O=c1[nH]c2ccccc2nc1CBr"
assay_value = "20.6 µM (inactive)"

[[record]]
compound = "COc1ccccc1NC(=O)C(=O)C1C(=O)Nc2ccccc2[S+]1[O-] (configuration not stated)"
assay_value = "> 100 µM (inactive)"

[[record]]
compound = "O.O=C([O-])c1ccccc1Nc1ccccc1C(=O)[O-].[Zn+2]"
assay_value = "> 100 µM (inactive)"

[[record]]
compound = "S=c1c2ccccc2c(=S)n2n1CC=CC2"
assay_value = "> 100 µM (inactive)"

[[record]]
compound = "O=C(/C=C1\\N=C(c2ccccc2)N(c2nc3ccc(Sc4ccccc4)cc3[nH]2)C1=O)/C=C/c1ccccc1"
assay_value = "17.4 µM (inactive)"

